EXPERIMENTAL DETAILS: Human HepG2 cell viability assay in 384 well format
Assay type: toxicity, cell-based
Parameters: dose 125 nL, time 70.5 hour; concentration not given beside the values
EXPERIMENTAL CONTEXT: HepG2 cells, read-out: Inhibition
MEASUREMENT LABEL: cytotoxicity at 70.5 h (%)
Express it in %; write the number only.

[
  {
    "MOLECULE": "NCCc1c(-c2ccc(F)cc2)[nH][nH]c1=O",
    "cytotoxicity at 70.5 h (%)": -3.38
  },
  {
    "MOLECULE": "CC[C@H]1N(CC2CCC2)CCC[C@]12CCC(=O)N2Cc1ccncc1",
    "cytotoxicity at 70.5 h (%)": -5.93
  },
  {
    "MOLECULE": "CN(Cc1ccccc1O)C(=O)NC1CCCN(c2ncccn2)C1 (stereo not given)",
    "cytotoxicity at 70.5 h (%)": 22.3
  },
  {
    "MOLECULE": "CC(=O)N1[C@H](CN(C)C)C[C@@H]2CN(c3ncc(F)cn3)CC[C@@H]21",
    "cytotoxicity at 70.5 h (%)": -6.27
  }
]

stdin: Output measured cytotoxicity at 70.5 h for this item: `O=C(C1CC1)N1CC2(CCNCC2)C1`
stdout: -8.48

* * *

EXPERIMENTAL DETAILS: Human HepG2 cell viability assay in 384 well format
Format: toxicity, cell-based
Parameters: dose 125 nL, time 70.5 hour; concentration not given beside the values
EXPERIMENTAL CONTEXT: HepG2 cells, read-out: Inhibition
Each item that follows carries a reported cytotoxicity at 70.5 h.
Express it in %; write the number only.

The cases that follow already have their cytotoxicity at 70.5 h on record.
[
  {
    "COMPOUND": "CCOC(=O)c1coc(N2CCC(C(C)N3CCCC3)CC2)n1 (centres undefined)",
    "RECORDED VALUE": -1.58
  },
  {
    "COMPOUND": "CCOCC1COCCC12CCN(C(=O)CC1=CCCCC1)CC2 (centres undefined)",
    "RECORDED VALUE": -5.12
  },
  {
    "COMPOUND": "Cc1cnccc1-n1nc(C(C)C)nc1CCc1cnccn1",
    "RECORDED VALUE": -19.8
  }
]

Pending compound:
stdin: Output measured cytotoxicity at 70.5 h for this item: O=C(c1n[nH]c2ccccc12)N1CCCC1c1noc(C2CC2)n1 (centres undefined)
stdout: -17.4

* * *

EXPERIMENTAL DETAILS: Human HepG2 cell viability assay in 384 well format
Type: toxicity, cell-based
Set-up: dose 125 nL, time 70.5 hour; concentration not given beside the values
EXPERIMENTAL CONTEXT: HepG2 cells, read-out: Inhibition
MEASUREMENT LABEL: cytotoxicity at 70.5 h (%)
Express it in %; write the number only.

[
  {
    "COMPOUND": "Cc1nc(CNC(=O)N2CCN(c3ccc(Cl)cn3)CC2)no1",
    "cytotoxicity at 70.5 h (%)": 3.34
  }
]

stdin: Output measured cytotoxicity at 70.5 h for this item: CC(C)CN1CC(c2nc(CCc3ccccc3)n[nH]2)CC1=O (stereo unspecified)
stdout: -9.23

stdin: Output measured cytotoxicity at 70.5 h for this item: `Cc1cc(-c2cnn(CCNC(=O)c3cc[nH]n3)c2C2CC2)on1`
stdout: -0.801

stdin: Output measured cytotoxicity at 70.5 h for this item: `O=C(c1ccsc1)N1C[C@H](N2CCOCC2)[C@@H]2OCCC[C@@H]21`
stdout: -1.61

stdin: Output measured cytotoxicity at 70.5 h for this item: `COC(=O)[C@H](C)NC(=O)Cn1ccc2ccc(F)cc21`
stdout: -1.25

stdin: Output measured cytotoxicity at 70.5 h for this item: `CC(C)N1CCc2[nH]nc(C(=O)N3CCN(C)CC3)c2C1`
stdout: -1.5

* * *

EXPERIMENTAL DETAILS: Human HepG2 cell viability assay in 384 well format
Format: toxicity, cell-based
Design: dose 125 nL, time 70.5 hour; concentration not given beside the values
EXPERIMENTAL CONTEXT: HepG2 cells, read-out: Inhibition
Each item that follows carries a reported cytotoxicity at 70.5 h.
Value and unit, in that order.

The cases that follow already have their cytotoxicity at 70.5 h on record.
[
  {
    "MOLECULE": "CCN1CC2(CC1=O)CN(Cc1ccoc1)CCN(C(=O)C(C)C)C2 (stereo not given)",
    "cytotoxicity at 70.5 h": "-20.2%"
  },
  {
    "MOLECULE": "CO[C@@H]1CCN(c2nnc(C)s2)C[C@@H]1Cc1ccccc1",
    "cytotoxicity at 70.5 h": "-2.42%"
  },
  {
    "MOLECULE": "c1ccc(CO[C@@H]2CC[C@H]3[C@H]2OCCN3Cc2ccsc2)nc1",
    "cytotoxicity at 70.5 h": "8.96%"
  },
  {
    "MOLECULE": "Cc1nc(CN2CCOCC2c2[nH]ncc2C)cs1 (stereo not given)",
    "cytotoxicity at 70.5 h": "1.5%"
  },
  {
    "MOLECULE": "O=C(CC1CC1)N(Cc1cccnc1)CC1CCN(C2CCCC2)CC1",
    "cytotoxicity at 70.5 h": "-1.09%"
  }
]

stdin: Output measured cytotoxicity at 70.5 h for this item: `CCCC(=O)N1CCC(C(=O)NCCNc2ncccn2)CC1`
stdout: 0.692%

* * *

Each item that follows carries a reported cytotoxicity at 70.5 h.
EXPERIMENTAL DETAILS: Human HepG2 cell viability assay in 384 well format
Type: toxicity, cell-based
Parameters: dose 125 nL, time 70.5 hour; concentration not given beside the values
EXPERIMENTAL CONTEXT: HepG2 cells, read-out: Inhibition
Express it in %; write the number only.

The cases that follow already have their cytotoxicity at 70.5 h on record.
[
  {
    "COMPOUND": "CCc1nnc2n1CCN(Cc1cc(Cl)c3c(c1)OCCO3)C2",
    "MEASUREMENT LABEL": "cytotoxicity at 70.5 h",
    "RECORDED VALUE": 21.4
  },
  {
    "COMPOUND": "O=C(CNC(=O)c1c[nH]c2ccccc12)NCCCn1ccnc1",
    "MEASUREMENT LABEL": "cytotoxicity at 70.5 h",
    "RECORDED VALUE": -5.85
  },
  {
    "COMPOUND": "CCN(CC)CCn1c(NC(=O)c2scnc2C)nc2ccccc21",
    "MEASUREMENT LABEL": "cytotoxicity at 70.5 h",
    "RECORDED VALUE": 5.56
  }
]

stdin: Output measured cytotoxicity at 70.5 h for this item: CCCC1(C(=O)O)CCCN(C(=O)c2cc(Cl)ccc2F)C1 (stereo not given)
stdout: -13.1

stdin: Output measured cytotoxicity at 70.5 h for this item: `CC(C)CC(=O)N1C[C@H]2CCCN(S(=O)(=O)c3ccc(Cl)s3)[C@H]2C1`
stdout: 14.6

stdin: Output measured cytotoxicity at 70.5 h for this item: `Cc1cc(S(=O)(=O)N2CCCc3ccccc32)sc1C(=O)O`
stdout: -12.2

* * *

EXPERIMENTAL DETAILS: Human HepG2 cell viability assay in 384 well format
Assay type: toxicity, cell-based
Design: dose 125 nL, time 70.5 hour; concentration not given beside the values
EXPERIMENTAL CONTEXT: HepG2 cells, read-out: Inhibition
MEASUREMENT LABEL: cytotoxicity at 70.5 h (%)
Express it in %; write the number only.

The cases that follow already have their cytotoxicity at 70.5 h on record.
[
  {
    "COMPOUND": "COc1ncccc1NC(=O)c1cccc(C)n1",
    "cytotoxicity at 70.5 h / %": -7.22
  },
  {
    "COMPOUND": "CCn1cc(S(=O)(=O)NCC(c2ccccc2)N2CCOCC2)c(C)n1 (stereo not drawn)",
    "cytotoxicity at 70.5 h / %": 18.1
  },
  {
    "COMPOUND": "CSc1nsc(SCC(=O)c2cc3c(cc2Cl)NC(=O)C3)n1",
    "cytotoxicity at 70.5 h / %": -29.3
  },
  {
    "COMPOUND": "CCC1(C)Cc2ccccc2-c2nc(NCCCO)nc(O)c21 (stereo not drawn)",
    "cytotoxicity at 70.5 h / %": -4.42
  }
]

stdin: Output measured cytotoxicity at 70.5 h for this item: `O=C(NCCCn1nc2ccccn2c1=O)NCC(C1CC1)C1CC1`
stdout: -12.3

stdin: Output measured cytotoxicity at 70.5 h for this item: CN1CCCC(C(=O)N2CCC(Oc3ccccn3)CC2)C1 (stereo not drawn)
stdout: -7.47

* * *

EXPERIMENTAL DETAILS: Human HepG2 cell viability assay in 384 well format
Type: toxicity, cell-based
Design: dose 125 nL, time 70.5 hour; concentration not given beside the values
EXPERIMENTAL CONTEXT: HepG2 cells, read-out: Inhibition
Mark not met for cytotoxicity at 70.5 h values under 30%, and met for everything at or above.

Worked examples follow.
[
  {
    "COMPOUND": "Cc1ccccc1CCCN(C)S(C)(=O)=O",
    "ASSIGNED LABEL": "not met"
  },
  {
    "COMPOUND": "CC(C)c1noc(-c2ccc(NCC3CCCOC3)nc2)n1 (stereo unspecified)",
    "ASSIGNED LABEL": "not met"
  },
  {
    "COMPOUND": "CC(C)N(CCCNC(=O)C1CC(=O)N(C)C1)S(C)(=O)=O (stereo unspecified)",
    "ASSIGNED LABEL": "met"
  },
  {
    "COMPOUND": "CCOc1cc(CN[C@@H]2COC[C@H]2Cc2cc(C)no2)ccc1O",
    "ASSIGNED LABEL": "not met"
  },
  {
    "COMPOUND": "O=C(N1CCCC1)N1CCC2(CCN(Cc3ccccn3)C2=O)C1 (stereo unspecified)",
    "ASSIGNED LABEL": "not met"
  }
]

We now examine a further compound.
stdin: Is the recorded value of cytotoxicity at 70.5 h equal to or greater than 30% for this compound? CCN1CC2(CC1=O)CN(Cc1ccncc1)CCN(C(=O)C(C)C)C2 (stereo unspecified)
stdout: not met
